System: Plasmodium falciparum
Experiment description: GSK_TCMDC: Inhibition of Plasmodium falciparum 3D7 in whole red blood cells, using parasite LDH activity as an index of growth. Test compounds present at 2uM
Assay type: functional
Outcome measure: Inhibition
Form field: result (number plus unit)

// worked examples, Inhibition included
CC(C)CN1CCC(COc2ccc3ncn(-c4cc(O[C@H](C)c5ccccc5C(F)(F)F)c(C(N)=O)s4)c3c2)CC1 ... 97%
Cc1ccc2oc3cc(-c4nnn[nH]4)ccc3c(=O)c2c1 ... 97%
CC(CN1CCN(C)CC1)C(=O)Nc1cccc(-c2cccc(-c3nc4ccccc4[nH]3)c2)c1 (centres undefined) ... 88%
c1ccc(Oc2ccc(Nc3ccnc4cc(-c5ccc(CNCCN6CCOCC6)o5)ccc34)cc2)cc1 ... 99%
Cc1cc(N2CCCCC2)nc2ccc(NC(=O)c3cncc(Br)c3)cc12 ... 100%

Respectfully, I request Inhibition for each entry included below.
1. COc1cccc2c(NN=Cc3cccc(Cl)c3)cc(C)nc12
2. COc1ccccc1CCNc1nc(C)cc(N[C@@H](Cc2ccccc2)C(=O)NCCc2ccccc2)n1.O=C(O)C(F)(F)F
3. O=C(CC1NC(=O)c2ccccc21)Nc1ccc(-c2cccc(-c3nc4cc(C(F)(F)F)ccc4[nH]3)c2)cc1 (centres undefined)
4. CN1CCN(CCCNCc2cccc(-c3ccc(CNCCc4ccccc4)cc3)c2)CC1.O=C(O)C(F)(F)F
5. CC(C)c1ccc(NC(=O)NCCCC2CCCN(CCCCCNC(=O)/C=C/c3ccc(Cl)c(Cl)c3)C2)cc1 (centres undefined)
6. CN=C(N)c1ccc(NC(=O)C=Cc2ccc(C(=O)Nc3ccc(C(N)=NC)cc3)cc2)cc1.Cl

Response:
1: 100%; 2: 100%; 3: 95%; 4: 100%; 5: 90%; 6: 97%

---

System: HepG2
Experiment description: GSK_TCMDC: Percent inhibition of human HepG2 cell line. Test compounds present at 10uM.
Assay type: functional
Outcome measure: Inhibition (%)
One number for each entry, in %.

Oc1ccc(Cl)cc1Nc1nc(C(F)(F)F)nc2ccccc12 ... 16
CC1CN(Cc2ccc(-c3ccc(-c4nc5ccccc5[nH]4)cc3)cc2)CC(C)O1.O=C(O)C(F)(F)F (stereo not drawn) ... 48
CCN(CC)CCN(Cc1ccc(-c2ccc(C(F)(F)F)cc2)cc1)C(=O)Cn1c(CCc2cc(F)ccc2F)nc(=O)c2ccccc21.O=C(O)C(O)C(O)C(=O)O ... 42
Cc1cc(C)cc(-n2c(C)cc(/C=C3\SC(=Nc4ccc(Cl)cc4)NC3=O)c2C)c1 ... 12
CC(C)(CNCc1ccc(F)c(F)c1)c1nc(-c2ccc(Cl)c(O)c2)c(-c2ccncc2)[nH]1.Cl ... 74
O=C(c1ccccc1NN=C1C(=O)N(c2ccccc2)N=C1c1ccccc1)N1CCOCC1 ... 0

The following compounds each have a reported value; give each one's Inhibition.
1. O=C(Nc1ccc(C(F)(F)F)cc1)c1ccc(S(=O)(=O)NC2CCN(CC3CCCCC3)C2)cc1.O=C(O)C(F)(F)F (stereo not drawn)
2. N#Cc1ccc(N2CCN(Cc3cccc(-c4cccc(-c5nc6cc(C(F)(F)F)ccc6[nH]5)c4)c3)CC2)nc1.O=C(O)C(F)(F)F

Response:
1: 33; 2: 15

---

I'd be grateful if you could share measured Inhibition for these entries.
Tested on: Plasmodium falciparum
Experiment description: GSK_TCMDC: Inhibition of Plasmodium falciparum 3D7 in whole red blood cells, using parasite LDH activity as an index of growth. Test compounds present at 2uM
Format: functional
Numbers only, in %.

Worked cases, answers included:
O=C(/C=C/c1ccc(Cl)c(Cl)c1)NC1CCC(CN2CCC(c3c[nH]c4ccncc34)CC2)CC1 (stereo unspecified) ... 100
CCOC(=O)c1cn(CC)c2cc(N(C)CCc3ccc(OC)c(OC)c3)c(F)cc2c1=O.Cl ... 92
CC(C)c1cc(Oc2c(I)cc(CCNC(=N)N)cc2I)ccc1O.Cl ... 98
COc1cc2ncnc(Nc3ccc4nc(Cc5ccccc5)[nH]c4c3)c2cc1OC.Cl ... 87
O=C1Nc2ccccc2/C1=N/NC(=S)N1CCOCC1 ... 95

I'm hoping you can list Inhibition for every molecule here, please.
1. NC(=O)c1ccccc1OCC(=O)Nc1cccc(-c2cccc(-c3nc4ccccc4[nH]3)c2)c1
2. Cc1cc(Nc2ccc(Oc3ccc(Cl)cc3)cc2)nc(N)n1
3. COc1cc2ncnc(Nc3ccc(OCc4ccccc4)c(I)c3)c2cc1OC.Cl
4. Nc1ncc(-c2ccsc2)cc1-c1nc2ccccc2[nH]1

Response:
1: 88; 2: 100; 3: 98; 4: 99

Provide Inhibition for all items below, preserving their order.
1. COc1cc2nc(NCCc3ccccc3)nc(NCc3ccc(C#N)cc3)c2cc1OC
2. CS(=O)(=O)CCNCc1cccc(-c2cc3c(Nc4ccc(OCc5cccc(F)c5)c(Cl)c4)ncnc3s2)c1.O=C(O)C(F)(F)F
3. CN1CCCC(CN2CCN(Cc3cccc(-c4ccc(-c5nc6cc(F)ccc6[nH]5)cc4)c3)CC2)C1.O=C(O)C(F)(F)F (stereo unspecified)
4. CC[C@H](NC(=O)c1c(CN2CCC(N3CCCCC3)CC2)c(-c2ccccc2)nc2cc(O)ccc12)c1ccccc1
5. Cc1ccc(NC(C)C(=O)Nc2ccc(C#N)cc2)cc1S(=O)(=O)N1CCCCC1 (stereo unspecified)
6. CC1(C)[C@H]2CC[C@@H](CNc3nc(NCCc4c[nH]cn4)nc(NCc4cc(F)ccc4F)n3)[C@@H]1C2
7. CC(C)(C)N1CCC(N(Cc2ccc(-c3ccc(C(F)(F)F)cc3)cc2)C(=O)Cn2c(CCc3cccc(F)c3F)nc(=O)c3cccnc32)CC1.O=C(O)C(O)C(O)C(=O)O

Response:
1. 100
2. 100
3. 100
4. 94
5. 92
6. 100
7. 100

---

Tested on: HepG2
Experiment description: GSK_TCMDC: Percent inhibition of human HepG2 cell line. Test compounds present at 10uM.
Type: functional
Rule: Inhibition below 20% gives TRUE, anything at or above gives FALSE.

O=C(Nc1cccc(F)c1)N1CCC(CN2CCOC(c3ccccc3)(c3ccccc3)C2)CC1 ... TRUE
CC(=O)Oc1cc(C)ccc1C1CCN(CCCCNC(=O)c2ccc(-c3ccc(C(F)(F)F)cc3)cc2)CC1 ... FALSE

Query: Please determine if CCCCCN1CCCC(NS(=O)(=O)c2cccc(C(=O)Nc3cccc(C(F)(F)F)c3)c2)C1.O=C(O)C(F)(F)F (centres undefined) is below 20% in terms of Inhibition.
Response: FALSE

Query: Determine if O=S(=O)(c1cc(Cl)c(Cl)cc1Cl)N1CCCCC(c2ccc(C(F)(F)F)cc2)=N1 shows Inhibition strictly lower than 20%.
Response: TRUE

Query: Consider CN(Cc1ccc(NC(=O)NC2CCN(C(=O)/C=C/c3ccc(Cl)c(Cl)c3)CC2)cc1)C1CCOCC1 . Does its Inhibition lie strictly below 20%?
Response: TRUE

Query: Problem: For the compound COc1ccc(-c2ccc(Nc3cccc(S(=O)(=O)CCN4CCC(CCN(C)C)CC4)c3)nc2)cn1 , is Inhibition under 20%?
Response: FALSE

---

Test system: Plasmodium falciparum
Experiment description: GSK_TCMDC: Inhibition of Plasmodium falciparum 3D7 in whole red blood cells, using parasite LDH activity as an index of growth. Test compounds present at 2uM
Type: functional
Outcome measure: Inhibition (%)
Give bare numbers, in %.

Guide cases for Inhibition, answers given:
CCn1ccc2c(N3CCCS3(=O)=O)cc(C(=O)N[C@@H](Cc3ccccc3)[C@H](O)CNC3CCCCC3)cc21 ... 97
O=C(NCCN1CCOCC1)c1ccc(CNC(=O)c2ccc(O)c(-c3ccc(Cl)c(Cl)c3)c2)cc1 ... 87
CC(=O)Nc1nc(C(=O)Nc2cccc(-c3ccc(-c4nc5cccc(C)c5[nH]4)cc3)c2)cs1 ... 100

Each compound below has a reported value. Please supply its Inhibition.
1. c1ccc(OCCOc2ccc(Nc3ccnc4cc5ccccc5cc34)cc2)cc1
2. CCCC(C)Nc1nc(C)cc(N[C@@H](CC(C)C)C(=O)NCc2ccc(C)cc2)n1.O=C(O)C(F)(F)F (stereo partly drawn)
3. Cc1ccc(S(=O)(=O)Nc2ccc(Nc3nccc(Nc4cccc5[nH]ncc45)n3)cc2)cc1
4. N#Cc1ccc2[nH]cc(CN3CCC4(CC3)CN(CCNCc3ccccc3)C(=O)CO4)c2c1.O=C(O)C(F)(F)F
5. COc1ccc2nccc(N/N=C/c3ccccc3[N+](=O)[O-])c2c1
6. N#Cc1ccc(-c2ccc(C(=O)NCC3CCN(CCN4CCC(c5ccc6c(c5OCC(N)=O)CCCC6)CC4)CC3)cc2)cc1
7. CC(=O)Nc1ccc(C(=O)Nc2ccc(-c3cccc(-c4nc5ccccc5[nH]4)c3)cc2)cn1

Response:
[100, 98, 90, 98, 100, 99, 99]

Fill in Inhibition for each of the 2 compounds listed.
1. COC(=O)c1ccc2[nH]cc(C3CCN(CCC4CCN(C(=O)/C=C/c5ccc(Cl)c(Cl)c5)CC4)CC3)c2c1
2. Cc1occc1C(=O)Nc1nc(-c2ccccn2)nc2ccsc12

Response:
1: 97; 2: 98
